Target Of Assay: ZFP SBS#603 (synthetic)
Sequence (chain, as listed by the source): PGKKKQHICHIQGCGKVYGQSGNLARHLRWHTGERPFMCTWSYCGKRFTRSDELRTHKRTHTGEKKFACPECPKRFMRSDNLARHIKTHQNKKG
Assay Summary: EMSA
Measurement Setup: tags: MBP fusion

[
  {
    "Binder": "GAGTCGGAA (dsDNA) DNA 1: GAGTCGGAA DNA 2: TTCCGACTC",
    "Kd, nM": 167
  }
]
